Consider the following IC50 data for Prostaglandin G/H synthase 2 (Homo sapiens, UniProt P35354), collected from several reports.
Answers are plain numbers, in µM.

molecule=O=c1cc(-c2ccc(O)c(O)c2)oc2cc(O)cc(O)c12 measuredmetric=IC50 observedvalue=12
molecule="CCOC(=O)COc1ccc(C2=NN(c3ccc(S(C)(=O)=O)cc3)C(c3ccc(Br)cc3)C2)cc1 (stereo not shown)" measuredmetric=IC50 observedvalue=0.103
molecule=C[C@H](C(=O)N[C@@H](Cc1c[nH]c2ccccc12)C(=O)O)c1cccc(C(=O)c2ccccc2)c1 measuredmetric=IC50 observedvalue=37.5

**Query** What value of IC50 has been reported for the following molecule? OC1(Cc2ccccc2)c2ccccc2Sc2ccc(C(F)(F)F)cc21 (stereo not shown)
**Result** 0.0741
